Here, each record is paired with measured pIC50 data.
target: human recombinant ATX (Homo sapiens (Human)); assay: Autotaxin (ATX) activity Quanta Red assay; conditions: 15 μM Rac-1-Palmitoyl-glycero-3-phosphocholine, 2 hours room temperature, determined in duplicate
pIC50: −log10 of the molar value. Counter-ions that a name gives are not always drawn.

{"columns": ["COMPOUND", "TARGET", "pIC50"],
 "data": [
  ["O=C(NC1CC(=O)N(c2ccc(CN3CCCCC3)cc2)C1)c1nnc(CCc2ccc(F)cc2)s1 (stereo not shown) [Compound F168]", "human recombinant ATX (Homo sapiens (Human))", 7.77],
  ["O=C(NC1CC(=O)N(c2ccc(CN3CCCCC3)cc2)C1)c1cc(CCc2ccccc2)[nH]n1 (stereo not shown) [Compound F204, hydrochloride]", "human recombinant ATX (Homo sapiens (Human))", 5.97],
  ["CN(Cc1ccc(N2C[C@@H](C(=O)Nc3ccc(CCc4ccc(F)cc4)nn3)CC2=O)cc1)C1COC1 [Compound F155]", "human recombinant ATX (Homo sapiens (Human))", 7.96],
  ["O=C(N[C@@H]1CC(=O)N(c2ccc(CN3CCCCC3)cc2)C1)c1cc(CCc2ccc(Cl)cc2)on1 [Compound F143]", "human recombinant ATX (Homo sapiens (Human))", 8.70],
  ["O=C(Nc1nnc(CCC2CCCCC2)s1)C1CC(=O)N(c2ccc(CN3CCCCC3)cc2)C1 (stereo not shown) [Compound F106]", "human recombinant ATX (Homo sapiens (Human))", 8.52],
  ["Cn1nc(NC(=O)C2CC(=O)N(c3ccc(CN4CCOCC4)cc3)C2)cc1CCc1ccc(Cl)cc1 (stereo not shown) [Compound F192]", "human recombinant ATX (Homo sapiens (Human))", 6.11],
  ["CN(Cc1ccc(N2C[C@@H](C(=O)Nc3nnc(CCc4ccc(Cl)cc4)s3)CC2=O)cc1)C1CCOCC1 [Compound F90]", "human recombinant ATX (Homo sapiens (Human))", 9.00]
]}
